Ref: paper PMC9865890

Tested on: Trichoderma viride (IAM 5061)
METHOD_SUMMARY: Antifungal bioassay (MIC/MFC)
Type: cell-based
EXPERIMENTAL_SETUP: Trichoderma viride, IAM5061; T.v. (T. viride); read-out: MIC
READOUT: MIC (µg/mL)
Numbers only, in µg/mL.

COC(=O)c1[nH]c2ccccc2c1/C=C1\SC(=S)N(N2CCOCC2)C1=O [Compound 6] = 8

State the recorded MIC for every item in the following list.
1. COC(=O)c1[nH]c2ccc(F)cc2c1/C=C1\SC(=S)N(CCCC(=O)O)C1=O [Compound 9]
2. COC(=O)c1[nH]c2ccccc2c1/C=C1\SC(=S)N(c2ccc(O)cc2)C1=O [Compound 4]
3. COC(=O)c1[nH]c2ccc(F)cc2c1/C=C1\SC(=S)N(C)C1=O [Compound 15]
4. COC(=O)c1[nH]c2ccccc2c1/C=C1\SC(=S)N(c2cccc(O)c2)C1=O [Compound 3]
5. COC(=O)c1[nH]c2ccccc2c1/C=C1\SC(=S)N(CCCCCC(=O)O)C1=O [Compound 1]
6. COC(=O)c1[nH]c2ccccc2c1/C=C1\SC(=S)N(CCCN2CCOCC2)C1=O [Compound 5]

Output line:
1. 8
2. 8
3. 8
4. 4
5. 15
6. 4
